Data origin, for the record: paper PMC9927813

# System name: SARS-CoV-2 N protein, in-house (SARS-CoV-2 (wild type), UniProt P0DTC9 1-419)
# Assay summary: BLI; aptamer on streptavidin sensor, PBST; BLI ([…], DPBS + 0.5 mM MgCl2 + 1 mM CaCl2, pH 7.4; […] (PBST)
# Setup conditions: protein: recombinant; chain copies: 2
Reported property: Kd (nM)

- CAGCGTCACGTGTTGTTCCCCATTGTACTGATTCGTCGTGGCAT (ssDNA) [biotinylated tNSP3]: 7.52
